Recorded GI50, one value per entry.
tested on: SNB-78; assay: NCI tumour cell line growth inhibition, 48 h
Active and inactive are the calls of the source. Rule as the data show it: active = GI50 up to about 1.1 µM and inactive = higher.

[
  {
    "molecule": "C1CC2=C(C1)C1=S(S2)SC2=C1CCC2",
    "quantity kind": "GI50",
    "meas value": "> 100 µM (inactive)"
  },
  {
    "molecule": "CCOC(=O)C(=O)Nc1ccccc1CC",
    "quantity kind": "GI50",
    "meas value": "> 10 µM (inactive)"
  },
  {
    "molecule": "Cc1cccc(C)c1NC(=O)CCCC(=O)C1/C(=N/NC(=O)CC#N)CCC/C1=N\\NC(=O)CC#N (centres undefined)",
    "quantity kind": "GI50",
    "meas value": "> 100 µM (inactive)"
  }
]

Any idea what its GI50 is? The molecule is CCCCCCCCCC/C=C/C=O
> 100 µM (inactive)
